test: recombinant UMI read abundance after kanamycin selection (control-corrected) (log10(CPM+1)); higher = more efficient recombination; extreme values may be limits of the assay; sequences stand for … in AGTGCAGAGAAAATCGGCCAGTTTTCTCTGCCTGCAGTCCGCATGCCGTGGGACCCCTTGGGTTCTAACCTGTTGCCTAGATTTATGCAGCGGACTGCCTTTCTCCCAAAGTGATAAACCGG…AGGTTGGTTTCACT; site = the 11-nt donor;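 also: IS621 bridge recombinase in Escherichia coli cells against a fixed T5 target plasmid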
measurement.kind: recombinant UMI read abundance (log10)

# construct.sequence, assay.value
measured = [
    ("TTAGTAACATGGACCGGTTTTCCCGGTAATCCGTATTTGAC (site CTAGTATCTGT)", 1.07),
    ("TGAAAGACATGGACCGGTTTTCCCGGTAATCCGTATTTGTA (site TGAAAGACTTA)", 2.37),
    ("CGGGAAGCATGGACCGGTTTTCCCGGTAATCCGTATTTGAT (site CGGGAACCTAT)", 0),
    ("GAATGGCCATGGACCGGTTTTCCCGGTAATCCGTATTTGCC (site GAATGGCCTCG)", 0.0106),
    ("GGGGCAGCATGGACCGGTTTTCCCGGTAATCCGTATTTGCA (site GGGGCAGCTTG)", 2.13),
    ("AATGTGCCATGGACCGGTTTTCCCGGTAATCCGTATTTGAC (site AATGTGACTGT)", 0),
    ("AGGGAAACATGGACCGGTTTTCCCGGTAATCCGTATTTGCA (site AGGGAAACTTG)", 1.42),
    ("CTAGTATCATGGACCGGTTTTCCCGGTAATCCGTATTTGAC (site CTAATAACTGT)", 0),
    ("CTGACTCCATGGACCGGTTTTCCCGGTAATCCGTATTTGTT (site CTGACTCCTAA)", 0.838),
    ("CATTCGACATGGACCGGTTTTCCCGGTAATCCGTATTTGGG (site CAGTCGACTCC)", 0.0114),
    ("CGTGGAACATGGACCGGTTTTCCCGGTAATCCGTATTTGTT (site CGTGGAACTTA)", 0.841),
]
